Source: the supplement of paper PMC10065799

# Assayed system: Grb2 SH2 (UniProt P62993)
# Sequence (P62993 whole entry, looked up, the tested form may be a part): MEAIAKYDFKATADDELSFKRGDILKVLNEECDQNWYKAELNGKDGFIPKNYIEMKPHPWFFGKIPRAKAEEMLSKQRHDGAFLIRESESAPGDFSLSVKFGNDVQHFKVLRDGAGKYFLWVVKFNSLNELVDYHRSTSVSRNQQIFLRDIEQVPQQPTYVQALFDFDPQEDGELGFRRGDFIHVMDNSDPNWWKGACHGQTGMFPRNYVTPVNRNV
# Measurement protocol: SH2 binding enrichment of the phosphorylated peptide, bacterial display (enrichment ratio); higher = better substrate or ligand; peptides without Tyr show the background;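 note: peptide library displayed on the E. coli surface as eCPX fusions, selected cells deep-sequenced, score is each peptide's frequency after selection divided by its frequency in the input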
Decide using SH2 binding enrichment: a value greater than or equal to 0.8 is rule met, a smaller one is rule not met.

RHLREYQDLLN [DES_Y388] = rule met
SSENPYATIKD [MEGF10_Y1030] = rule met
SFPSTYRFERG [INPPL1_Y661_P659S_YF] = rule met
NTGDFCDLFGG [PTPN11_Y63_Y63C_YF] = rule met
GNHISYYQSDG [CACNA1C_Y1757_V1755I] = rule met
QISSNYDDAMQ [ZNF281_Y531] = rule not met
RVGVDYEGRGC [PLOD1_Y675_G678R] = rule met
STEAIYWRYSK [SH3PXD2B_Y42_R43W] = rule not met
KDHPDYKFQLR [SOX10_Y171_P175L_YF] = rule not met
PAGSGYPAYLG [ATP6V1A_Y374_D371G] = rule met

Dear colleague, could you confirm whether LARDMYDKEYY [MET_Y1230] has SH2 binding enrichment at or above 0.8? rule met
